Molecular target: APP-Avi-soluble human LOX-1(61-273) (human, UniProt P78380 61-273)
Assay: competition ELISA: oxLDL binding to plate-bound biotinylated human sLOX-1
endpoint-name: IC50 (nM)
Only the number, expressed in nM, is required.

Here's what some known entries look like.
[[record]]
binder = "MOR22034 (antibody, human IgG1, kappa, L234A L235A, V domains shown, Human IgG1f LALA; also called MOR022034; MOR20234) VH: QVQLVQSGAEVKKPGSSVKVSCKASGGTFSDYAISWVRQAPGQGLEWMGGIVPIVGTANYAQKFQGRVTITADESTSTAYMELSSLRSEDTAVYYCARDSSTSYYYYFDYWGQGTLVTVSS VL: DIQMTQSPSSLSASVGDRVTITCRASQDISSWLAWYQQKPGKAPKLLIYQASNLQSGVPSRFSGSGSGTDFTLTISSLQPEDFATYYCQQMWQFPITFGQGTKVEIKR"
endpoint_name = "IC50"
readout_number = 10

[[record]]
binder = "MOR020159 (antibody, human IgG1, kappa, L234A L235A, V domains shown, also called MOR20159) VH: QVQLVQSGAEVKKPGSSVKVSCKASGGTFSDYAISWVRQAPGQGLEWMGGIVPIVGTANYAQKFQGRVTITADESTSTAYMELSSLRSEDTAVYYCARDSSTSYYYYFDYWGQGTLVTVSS VL: DIQMTQSPSSLSASVGDRVTITCRASQDINSWLAWYQQKPGKAPKLLIYQASNLQSGVPSRFSGSGSGTDFTLTISSLQPEDFATYYCQQIDHTPFTFGQGTKVEIKR"
endpoint_name = "IC50"
readout_number = 5

[[record]]
binder = "MOR020144 (antibody, human IgG1, lambda, L234A L235A, V domains shown, also called MOR20144) VH: QVQLLESGGGLVQPGGSLRLSCAASGFTFSDYALHWVRQAPGKGLEWVSVISYSGGYTYYADSVKGRFTISRDNSKNTLYLQMNSLRAEDTAVYYCARSPGLTSYHDSWGQGTLVTVSS VL: DIVLTQPPSVSGAPGQRVTISCSGSSSNIGSNYVSWYQQLPGTAPKLLIHSNSHRPSGVPDRFSGSKSGTSASLAITGLQAEDEADYYCQSWDYESERVVFGGGTKLTVLG"
endpoint_name = "IC50"
readout_number = 5


Entry MOR22028 (antibody, human IgG1, lambda, L234A L235A, V domains shown, Human IgG1f LALA; also called MOR022028; MOR20228) VH: QVQLLESGGGLVQPGGSLRLSCAASGFTFSDYALHWVRQAPGKGLEWVSVISYAGGFKFYADSVKGRFTISRDNSKNTLYLQMNSLRAEDTAVYYCARSPGLTSYHDSWGQGTLVTVSS VL: QSVLTQPPSVSGAPGQRVTISCSGSSSNIGSNYVSWYQQLPGTAPKLLIHSSSHRPSGVPDRFSGSKSGTSASLAITGLQAEDEADYYCQSWDYESERVVFGGGTKLTVLG , IC50 reported as 9

Entry MOR021433 (antibody, human IgG1, kappa, L234A L235A, V domains shown, also called MOR21433) VH: QVQLVQSGAEVKKPGSSVKVSCKASGGTFSDYAISWVRQAPGQGLEWMGGIMPISGAPYYAQKFQGRVTITADESTSTAYMELSSLRSEDTAVYYCARDSSTSYYYYFDYWGQGTLVTVSS VL: DIQMTQSPSSLSASVGDRVTITCRASQDINSWLAWYQQKPGKAPKLLIYQASNLQSGVPSRFSGSGSGTDFTLTISSLQPEDFATYYCQQIDHTPFTFGQGTKVEIKR , IC50 reported as 2.9

Entry MOR22031 (antibody, human IgG1, kappa, L234A L235A, V domains shown, Human IgG1f LALA; also called MOR022031; MOR20231) VH: QVQLVQSGAEVKKPGSSVKVSCKASGGTFSDYAISWVRQAPGQGLEWMGGIMPISGAPYYAQKFQGRVTITADESTSTAYMELSSLRSEDTAVYYCARDSSTSYYYYFDYWGQGTLVTVSS VL: DIQMTQSPSSLSASVGDRVTITCRASQDISSWLAWYQQKPGKAPKLLIYQASNLQSGVPSRFSGSGSGTDFTLTISSLQPEDFATYYCQQIDHTPFTFGQGTKVEIKR , IC50 reported as 4
